# assayed_target: AF-Est2 (Archaeoglobus fulgidus, UniProt O28735)
# Construct: gene AF_1537; full-length, no stop codon, C-terminal 6xHis tag (pET24d, plasmid pWUR365), E. coli BL21-CodonPlus(DE3)-RIPL; tag kept
# Sequence (O28735 entry or part of it): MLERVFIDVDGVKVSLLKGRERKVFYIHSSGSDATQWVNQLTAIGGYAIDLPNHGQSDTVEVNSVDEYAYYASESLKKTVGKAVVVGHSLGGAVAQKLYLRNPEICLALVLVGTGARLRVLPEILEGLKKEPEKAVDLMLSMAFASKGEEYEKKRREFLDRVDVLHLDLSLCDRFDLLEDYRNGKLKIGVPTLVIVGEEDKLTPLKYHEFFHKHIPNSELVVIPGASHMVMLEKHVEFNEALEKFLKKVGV
# test: p-nitrophenol release at […] nm, microplate, Michaelis-Menten fit
# Format: biochemical
# test_conditions: 50 mM Tris-HCl pH 7.5, 30 °C; enzyme carries co-purified CoA
endpoint_name: Km (µM)

[I] CCCCCCCC(=O)Oc1ccc([N+](=O)[O-])cc1 [C8, pNP-caprylate]
[II] CCCCC(=O)Oc1ccc([N+](=O)[O-])cc1 [C5, pNP-valerate]
[III] CC(=O)Oc1ccc([N+](=O)[O-])cc1 [C2, pNP-acetate]
[IV] CCC(=O)Oc1ccc([N+](=O)[O-])cc1 [C3, pNP-propionate]
## Task Ascending by Km, please. Please list the labels in the order you were asked to rank them.
## Result II, I, IV, III
